experiment: clinical; conditions: male, human, in vivo, iv, 0.01 mg/kg, Vd
measurement.label: Vd (L/kg)
The answer is to be given in L/kg; state only the numeric part.

**Query** Report measured Vd; entry is CN1CCc2cccc3c2[C@H]1Cc1ccc(O)c(O)c1-3 [apomorphine]
**Result** 3.35
